// data source = patent US12637468B2

Let's look at some compounds and their measured inhibition at 0.1 µM.
EXPERIMENTAL_TARGET: α5-GABAA receptor (Homo sapiens, UniProt P18507+P31644)
Construct: expressed in transfected cells; host or cells: HEK293, monoclonal stably transfected line
Sequence (P31644 32-462): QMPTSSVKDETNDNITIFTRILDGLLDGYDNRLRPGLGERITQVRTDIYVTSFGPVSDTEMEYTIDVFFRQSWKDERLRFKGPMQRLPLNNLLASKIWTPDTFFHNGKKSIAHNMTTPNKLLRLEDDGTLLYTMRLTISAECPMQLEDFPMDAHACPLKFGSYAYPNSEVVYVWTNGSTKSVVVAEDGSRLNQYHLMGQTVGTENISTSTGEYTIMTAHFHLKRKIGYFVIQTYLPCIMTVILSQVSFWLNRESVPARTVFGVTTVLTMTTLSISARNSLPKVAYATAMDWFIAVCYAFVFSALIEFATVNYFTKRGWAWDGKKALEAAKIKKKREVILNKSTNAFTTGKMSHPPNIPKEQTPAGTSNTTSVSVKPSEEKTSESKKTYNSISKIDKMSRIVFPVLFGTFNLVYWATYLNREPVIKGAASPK
Sequence (P28472 26-473 partner): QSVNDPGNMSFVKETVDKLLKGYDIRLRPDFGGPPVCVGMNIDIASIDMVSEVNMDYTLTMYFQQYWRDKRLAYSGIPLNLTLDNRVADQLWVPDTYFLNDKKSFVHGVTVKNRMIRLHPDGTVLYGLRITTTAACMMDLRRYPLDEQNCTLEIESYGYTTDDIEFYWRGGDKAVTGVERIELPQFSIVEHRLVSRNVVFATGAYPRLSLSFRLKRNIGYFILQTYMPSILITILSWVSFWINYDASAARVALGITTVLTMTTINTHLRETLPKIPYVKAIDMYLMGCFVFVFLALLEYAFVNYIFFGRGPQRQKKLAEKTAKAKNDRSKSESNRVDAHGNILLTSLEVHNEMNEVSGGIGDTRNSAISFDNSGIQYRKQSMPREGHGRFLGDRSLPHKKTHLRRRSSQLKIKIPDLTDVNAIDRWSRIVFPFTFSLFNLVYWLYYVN
Sequence (P18507 40-467 isoform P18507-1 limits assumed): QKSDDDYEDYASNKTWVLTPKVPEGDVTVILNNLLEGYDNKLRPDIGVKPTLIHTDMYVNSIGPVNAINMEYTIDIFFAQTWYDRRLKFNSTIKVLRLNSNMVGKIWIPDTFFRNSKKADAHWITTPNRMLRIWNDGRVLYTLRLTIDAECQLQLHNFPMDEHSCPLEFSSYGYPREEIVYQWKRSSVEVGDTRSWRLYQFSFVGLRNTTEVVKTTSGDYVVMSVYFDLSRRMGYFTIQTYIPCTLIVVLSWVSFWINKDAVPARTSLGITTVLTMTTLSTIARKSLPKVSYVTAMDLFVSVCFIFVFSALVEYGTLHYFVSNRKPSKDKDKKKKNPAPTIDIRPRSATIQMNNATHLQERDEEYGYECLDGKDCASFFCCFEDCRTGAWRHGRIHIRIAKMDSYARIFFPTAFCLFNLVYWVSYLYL
ASSAY_NOTES: Cell-level screening: whole cell patch clamp, inverse agonist efficacy on α5-GABAA receptor expressed in HEK293
Format: cell-based
MEASUREMENT_CONTEXT: drug 100 nM, GABA 0.05 μM, HEK293 expressing α5, β3 and γ2 subunits, clamped at −60 mV; read-out: Compound inverse agonist efficacy %
Report as: number unit

| SMILES_INPUT | RESULT |
| --- | --- |
| COCCOc1ccc(COc2nn3c(-c4noc(C)n4)nnc3cc2OC)nc1 | 57.3% |
| COc1cc2nnc(-c3cc(C)on3)n2nc1OCc1ccc2c(n1)CCN(C1CN(C(C)=O)C1)C2 | 56.8% |
| COc1cc2nnc(-c3cc(C)on3)n2nc1OCc1ccc2c(n1)CCN(C(=O)C1CC1)C2 | 45.9% |

# ---- query compound ----
What does the record list as inhibition at 0.1 µM for `COc1cc2nnc(-c3cc(C)on3)n2nc1OCc1ccc2c(n1)CCN(C(=O)NC1CC(F)(F)C1)C2` ?
48.3%

---

EXPERIMENTAL_TARGET: α5-GABAA receptor (Homo sapiens, UniProt P18507+P31644)
Construct: expressed in transfected cells; host or cells: HEK293, monoclonal stably transfected line
ASSAY_NOTES: Cell-level screening: whole cell patch clamp, inverse agonist efficacy on α5-GABAA receptor expressed in HEK293
Format: cell-based
MEASUREMENT_CONTEXT: drug 100 nM, GABA 0.05 μM, HEK293 expressing α5, β3 and γ2 subunits, clamped at −60 mV; read-out: Compound inverse agonist efficacy %
Protocol: The inventors used electrophysiological methods to determine the inverse agonist efficacy of the drugs to be tested on the α5-GABAA receptor. The detailed methods are as follows: Different subunits of GABAA receptors were expressed in human […] cell line 293 (HEK293) cell line. […] Drug concentration setting: the final drug concentration used in drug screening was 100 nM, and the GABA concentration range was 0.05 μM. […] Then the current induced by GABA could be detected. […]
Let's look at some compounds and their measured inhibition at 0.1 µM.
Report as: number unit

Consider the worked cases shown below.
| COMPOUND | inhibition at 0.1 µM |
| --- | --- |
| COc1cc2nnc(-c3cc(C)on3)n2nc1OCc1ccc2ccn(C)c2n1 [Embodiment 94] | 32.9% |
| COc1cc2nnc(-c3cc(C)on3)n2nc1OCc1ccc2ncn(C)c2n1 [Embodiment 101] | 32.9% |
| COCCNc1ccc(COc2nn3c(-c4cc(C)on4)nnc3cc2OC)nn1 [Embodiment 159] | 50.4% |
| COc1cc2nnc(-c3cc(C)on3)n2nc1OCc1ccc2c(n1)CCN(Cc1nnc(C)o1)C2 [Embodiment 188] | 52.4% |
| CCNCc1ccc(COc2nn3c(-c4cc(C)on4)nnc3cc2OC)nc1 [Embodiment 21] | 36.3% |
| COCc1cc(-c2nnc3cc(OC)c(OCc4ccc(OC)cn4)nn23)no1 [Embodiment 48] | 34.7% |
| COc1cc2nnc(-c3cc(C)on3)n2nc1OCc1ccc2c(n1)CCN(CC(=O)N1CCCC1)C2 [Embodiment 189] | 52.4% |
| COc1cc2nnc(-c3cc(C)on3)n2nc1OCc1cccc(C2(F)CNC2)n1 [Embodiment 70] | 31.7% |
| COc1cc2nnc(-c3cc(C)on3)n2nc1OCc1ccc2c(n1)NCCO2 [Embodiment 119] | 35.9% |
| COc1cc2nnc(-c3cc(C)on3)n2nc1OCc1ccc2nnc(C3CCOCC3)n2n1 [Embodiment 215] | 36.8% |

What does the record list as inhibition at 0.1 µM for COc1cc2nnc(-c3cc(C)on3)n2nc1OCc1ccc(OCC2(C)COC2)nn1 [Embodiment 150] ?
46.2%

Same question, COc1cc2nnc(-c3cc(C)on3)n2nc1OCc1ccc2c(n1)CCN(C(=O)N(C)CC(F)(F)F)C2 [Embodiment 204] this time
49.7%

Same question, COc1cc2nnc(-c3cc(C)on3)n2nc1OCc1ccc(OC2CC3(COC3)C2)nn1 [Embodiment 179] this time
39%

Same question, COc1ccc(COc2nn3c(-c4cc(CO)on4)nnc3cc2OC)nc1 [Embodiment 47] this time
45.2%

Same question, COc1cc2nnc(-c3cc(C)on3)n2nc1OCc1ccc2nc(C#N)cn2n1 [Embodiment 211] this time
64.7%

Same question, C=CC(=O)N1CCc2nc(COc3nn4c(-c5cc(C)on5)nnc4cc3OC)ccc2C1 [Embodiment 108] this time
54.9%

Same question, COc1ccc(C(F)(F)F)nc1COc1nn2c(-c3cc(C)on3)nnc2cc1OC [Embodiment 62] this time
35.7%
